# maps each entry to its helicity
- Method notes: circular dichroism
- Cond: phosphate buffer (PB); pH 7.2; ns °C; 10-50 (printed mmol/L, probably uM)
Positions of bridges follow the written chain, without caps; N, C: chain ends. Non-standard residues stand in square brackets, D forms with d. Residues, ends and D or L forms follow the SMILES beside them. S5 = C=CCCC[C@](C)(N)C(=O)O
The figure you give is taken to be in %; do not add the unit.

Compound	Value reported
CSCC[C@@H]1NC(=O)[C@H](CC(C)C)NC(=O)[C@H](CCC(N)=O)NC(=O)[C@@](C)(NC(=O)[C@H](Cc2c[nH]c3ccccc23)NC(=O)[C@H](Cc2ccc(O)cc2)NC(=O)[C@H](CCC(=O)O)NC(=O)[C@H](CC(C)C)NC(=O)[C@H](Cc2ccccc2)NC(=O)[C@@H](NC(=O)[C@H](CC(C)C)NC(=O)[C@H](CCCCN)NC(C)=O)[C@@H](C)O)CCCC=CCCC[C@@](C)(C(=O)N[C@@H](CCCCN)C(N)=O)NC1=O [SM3-5] (Ac-KLTFLEYW[S5]QLM[S5]K-NH2; staple 9-13)	42.9

Shifting focus to the compound that follows.
Provide helicity value for the following compound: CSCC[C@H](NC(=O)[C@H](CC(C)C)NC(=O)[C@]1(C)CCCC=CCCC[C@](C)(NC(=O)[C@H](CC(C)C)NC(=O)[C@H](Cc2ccccc2)NC(=O)[C@@H](NC(=O)[C@H](CC(C)C)NC(=O)[C@H](CCCCN)NC(C)=O)[C@@H](C)O)C(=O)N[C@@H](Cc2ccc(O)cc2)C(=O)N[C@@H](Cc2c[nH]c3ccccc23)C(=O)N[C@@H](C)C(=O)N1)C(=O)N[C@@H](CCC(N)=O)C(=O)N[C@@H](CCCCN)C(N)=O [SM3-4] (Ac-KLTFL[S5]YWA[S5]LMQK-NH2; staple 6-10)
29

* * *

- System: HCT116 p53^−/−
- Cond: 72 h
Positions of bridges follow the written chain, without caps; N, C: chain ends. Non-standard residues stand in square brackets, D forms with d. Residues, ends and D or L forms follow the SMILES beside them. S5 = C=CCCC[C@](C)(N)C(=O)O
# maps each entry to its IC50
The figure you give is taken to be in µM; do not add the unit.

Molecule	IC50 [µM]
CSCC[C@H](NC(=O)[C@H](CC(C)C)NC(=O)[C@H](CCC(N)=O)NC(=O)[C@]1(C)CCCC=CCCC[C@](C)(NC(=O)[C@H](Cc2ccccc2)NC(=O)[C@@H](NC(=O)[C@H](CC(C)C)NC(=O)[C@H](CCCCN)NC(C)=O)[C@@H](C)O)C(=O)N[C@@H](CCC(=O)O)C(=O)N[C@@H](Cc2ccc(O)cc2)C(=O)N[C@@H](Cc2c[nH]c3ccccc23)C(=O)N1)C(=O)N[C@@H](CCC(N)=O)C(=O)N[C@@H](CCCCN)C(N)=O [SM3-3] (Ac-KLTF[S5]EYW[S5]QLMQK-NH2; staple 5-9)	25.8

Shifting focus to the molecule that follows.
Provide IC50 value for the following molecule: CSCC[C@H](NC(=O)[C@H](CC(C)C)NC(=O)[C@H](CCC(N)=O)NC(=O)[C@H](C)NC(=O)[C@H](Cc1c[nH]c2ccccc12)NC(=O)[C@H](Cc1ccc(O)cc1)NC(=O)[C@]1(C)CCCC=CCCC[C@](C)(NC(=O)[C@H](CCCCN)NC(C)=O)C(=O)N[C@@H]([C@@H](C)O)C(=O)N[C@@H](Cc2ccccc2)C(=O)N[C@@H](CC(C)C)C(=O)N1)C(=O)N[C@@H](CCC(N)=O)C(=O)N[C@@H](CCCCN)C(N)=O [SM3-1] (Ac-K[S5]TFL[S5]YWAQLMQK-NH2; staple 2-6)
54.8

* * *

- Tested on: U251
- Cond: U251 tumor cells, CCK-8
Positions of bridges follow the written chain, without caps; N, C: chain ends. Non-standard residues stand in square brackets, D forms with d. Residues, ends and D or L forms follow the SMILES beside them. R8 = C=CCCCCCC[C@@](C)(N)C(=O)O; S5 = C=CCCC[C@](C)(N)C(=O)O
Property measured: concentration at which in vitro anti-tumor activity was exhibited (µM)
The figure you give is taken to be in µM; do not add the unit.

Compound	Tested system	Value reported
CC(=O)N[C@@H](CCCCN)C(=O)N[C@@H](CC(C)C)C(=O)N[C@H](C(=O)N[C@@H](Cc1ccccc1)C(=O)N[C@]1(C)CCCCCCC=CCCC[C@@](C)(C(=O)N[C@@H](CCC(N)=O)C(=O)N[C@@H](CCCCN)C(N)=O)NC(=O)[C@H](CC(C)C)NC(=O)[C@H](CCC(N)=O)NC(=O)[C@H](C)NC(=O)[C@H](Cc2c[nH]c3ccccc23)NC(=O)[C@H](Cc2ccc(O)cc2)NC(=O)[C@H](CCC(=O)O)NC1=O)[C@@H](C)O [SM3-8] (Ac-KLTF[R8]EYWAQL[S5]QK-NH2; staple 5-12)	U251	100
CSCC[C@H](NC(=O)[C@H](CC(C)C)NC(=O)[C@H](CCC(N)=O)NC(=O)[C@H](C)NC(=O)[C@H](Cc1c[nH]c2ccccc12)NC(=O)[C@]1(C)CCCC=CCCC[C@](C)(NC(=O)[C@H](CC(C)C)NC(=O)[C@H](CCCCN)NC(C)=O)C(=O)N[C@@H](Cc2ccccc2)C(=O)N[C@@H](CC(C)C)C(=O)N[C@@H](CCC(=O)O)C(=O)N1)C(=O)N[C@@H](CCC(N)=O)C(=O)N[C@@H](CCCCN)C(N)=O [SM3-2] (Ac-KL[S5]FLE[S5]WAQLMQK-NH2; staple 3-7)	U251	50
CSCC[C@@H]1NC(=O)[C@H](CC(C)C)NC(=O)[C@H](CCC(N)=O)NC(=O)[C@@](C)(NC(=O)[C@H](Cc2c[nH]c3ccccc23)NC(=O)[C@H](Cc2ccc(O)cc2)NC(=O)[C@H](CCC(=O)O)NC(=O)[C@H](CC(C)C)NC(=O)[C@H](Cc2ccccc2)NC(=O)[C@@H](NC(=O)[C@H](CC(C)C)NC(=O)[C@H](CCCCN)NC(C)=O)[C@@H](C)O)CCCC=CCCC[C@@](C)(C(=O)N[C@@H](CCCCN)C(N)=O)NC1=O [SM3-5] (Ac-KLTFLEYW[S5]QLM[S5]K-NH2; staple 9-13)	U251	50

Shifting focus to the compound that follows.
Provide concentration at which in vitro anti-tumor activity was exhibited value for the following compound: CSCC[C@H](NC(=O)[C@H](CC(C)C)NC(=O)[C@H](CCC(N)=O)NC(=O)[C@]1(C)CCCC=CCCC[C@](C)(NC(=O)[C@H](Cc2ccccc2)NC(=O)[C@@H](NC(=O)[C@H](CC(C)C)NC(=O)[C@H](CCCCN)NC(C)=O)[C@@H](C)O)C(=O)N[C@@H](CCC(=O)O)C(=O)N[C@@H](Cc2ccc(O)cc2)C(=O)N[C@@H](Cc2c[nH]c3ccccc23)C(=O)N1)C(=O)N[C@@H](CCC(N)=O)C(=O)N[C@@H](CCCCN)C(N)=O [SM3-3] (Ac-KLTF[S5]EYW[S5]QLMQK-NH2; staple 5-9)
100

* * *

- Method notes: Circular dichroism, degree of helicity
- Assay type: physicochemical
- Cond: CD, PB pH 7.2, 10–50 mmol/L peptide, ambient temperature, 1-mm path length, 185–255 nm
Positions of bridges follow the written chain, without caps; N, C: chain ends. Non-standard residues stand in square brackets, D forms with d. Residues, ends and D or L forms follow the SMILES beside them. S5 = C=CCCC[C@](C)(N)C(=O)O
Property measured: helicity
Give the value; after it, write the unit.

Compound	helicity
CSCC[C@H](NC(=O)[C@H](CC(C)C)NC(=O)[C@H](CCC(N)=O)NC(=O)[C@H](C)NC(=O)[C@H](Cc1c[nH]c2ccccc12)NC(=O)[C@]1(C)CCCC=CCCC[C@](C)(NC(=O)[C@H](CC(C)C)NC(=O)[C@H](CCCCN)NC(C)=O)C(=O)N[C@@H](Cc2ccccc2)C(=O)N[C@@H](CC(C)C)C(=O)N[C@@H](CCC(=O)O)C(=O)N1)C(=O)N[C@@H](CCC(N)=O)C(=O)N[C@@H](CCCCN)C(N)=O [SM3-2] (Ac-KL[S5]FLE[S5]WAQLMQK-NH2; staple 3-7)	5.85%

Provide helicity value for the following compound: CSCC[C@H](NC(=O)[C@H](CC(C)C)NC(=O)[C@H](CCC(N)=O)NC(=O)[C@H](C)NC(=O)[C@H](Cc1c[nH]c2ccccc12)NC(=O)[C@H](Cc1ccc(O)cc1)NC(=O)[C@]1(C)CCCC=CCCC[C@](C)(NC(=O)[C@H](CCCCN)NC(C)=O)C(=O)N[C@@H]([C@@H](C)O)C(=O)N[C@@H](Cc2ccccc2)C(=O)N[C@@H](CC(C)C)C(=O)N1)C(=O)N[C@@H](CCC(N)=O)C(=O)N[C@@H](CCCCN)C(N)=O [SM3-1] (Ac-K[S5]TFL[S5]YWAQLMQK-NH2; staple 2-6)
42.36%

Provide helicity value for the following compound: CSCC[C@H](NC(=O)[C@H](CC(C)C)NC(=O)[C@]1(C)CCCC=CCCC[C@](C)(NC(=O)[C@H](CC(C)C)NC(=O)[C@H](Cc2ccccc2)NC(=O)[C@@H](NC(=O)[C@H](CC(C)C)NC(=O)[C@H](CCCCN)NC(C)=O)[C@@H](C)O)C(=O)N[C@@H](Cc2ccc(O)cc2)C(=O)N[C@@H](Cc2c[nH]c3ccccc23)C(=O)N[C@@H](C)C(=O)N1)C(=O)N[C@@H](CCC(N)=O)C(=O)N[C@@H](CCCCN)C(N)=O [SM3-4] (Ac-KLTFL[S5]YWA[S5]LMQK-NH2; staple 6-10)
28.96%

Provide helicity value for the following compound: CSCC[C@H](NC(=O)[C@H](CC(C)C)NC(=O)[C@H](CCC(N)=O)NC(=O)[C@]1(C)CCCC=CCCC[C@](C)(NC(=O)[C@H](Cc2ccccc2)NC(=O)[C@@H](NC(=O)[C@H](CC(C)C)NC(=O)[C@H](CCCCN)NC(C)=O)[C@@H](C)O)C(=O)N[C@@H](CCC(=O)O)C(=O)N[C@@H](Cc2ccc(O)cc2)C(=O)N[C@@H](Cc2c[nH]c3ccccc23)C(=O)N1)C(=O)N[C@@H](CCC(N)=O)C(=O)N[C@@H](CCCCN)C(N)=O [SM3-3] (Ac-KLTF[S5]EYW[S5]QLMQK-NH2; staple 5-9)
38.10%

These measurements were taken from paper PMC11190158.
